target under test: eel acetylcholinesterase (AChE) (Electrophorus electricus, UniProt O42275)
Sequence (O42275 24-633): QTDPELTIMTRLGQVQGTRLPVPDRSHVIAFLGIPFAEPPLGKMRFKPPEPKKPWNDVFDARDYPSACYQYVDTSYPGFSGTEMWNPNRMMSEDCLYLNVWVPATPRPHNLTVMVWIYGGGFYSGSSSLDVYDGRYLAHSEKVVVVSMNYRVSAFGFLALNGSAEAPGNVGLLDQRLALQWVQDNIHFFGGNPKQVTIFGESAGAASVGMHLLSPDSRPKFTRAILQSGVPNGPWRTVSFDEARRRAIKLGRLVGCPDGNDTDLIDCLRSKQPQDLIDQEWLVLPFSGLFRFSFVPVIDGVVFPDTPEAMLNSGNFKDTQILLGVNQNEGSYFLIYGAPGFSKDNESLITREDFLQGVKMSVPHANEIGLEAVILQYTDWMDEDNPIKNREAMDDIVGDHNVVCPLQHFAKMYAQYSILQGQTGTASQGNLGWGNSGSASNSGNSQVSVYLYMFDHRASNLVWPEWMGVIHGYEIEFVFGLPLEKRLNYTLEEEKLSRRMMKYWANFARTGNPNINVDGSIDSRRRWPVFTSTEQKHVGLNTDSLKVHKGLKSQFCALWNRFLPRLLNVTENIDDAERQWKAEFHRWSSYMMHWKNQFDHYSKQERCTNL
assay details: Eel AChE fluorescence assay (AMPLEX Red kit)
Format: biochemical
test conditions: eel AChE activity, at 20 μM; read-out: Percentage inhibition
Counter-ions that a name gives are not always drawn.
outcome measure: inhibition at 20 µM (%)
Report the value in % with no unit label.

In the examples that follow, each entry is paired with its recorded inhibition at 20 µM.
{"columns": ["molecule", "units label", "inhibition at 20 µM"],
 "data": [
  ["O=C1c2ccccc2-c2ccccc21", "%", 3],
  ["COc1ccc2nc3cc(Cl)ccc3c(Nc3cc(CN4CCCC4)c(O)c(CN4CCCC4)c3)c2n1", "%", 53.6],
  ["CCN(CC)CCNc1ccc(C)c2sc3ccccc3c(=O)c12", "%", 11],
  ["CCN(CC)CCC[C@H](C)Nc1c2ccc(Cl)cc2nc2ccc(OC)cc12 [quinacrine hydrochloride]", "%", 61.8],
  ["CCN(CC)CCOc1ccc2c(c1)C(=O)c1cc(OCCN(CC)CC)ccc1-2", "%", 103],
  ["O=C1c2cc(O)ccc2-c2ccc(O)cc21 [2,7-dihydroxy-9H-fluoren-9-one]", "%", 30]
]}

API: the following record is the query input.
Lookup: # lookup: inhibition at 20 µM of Nc1c2ccccc2nc2ccccc12
Found: 99.2

* * *

target under test: human butyrylcholinesterase (BuChE) (Homo sapiens)
Sequence (P06276 29-602): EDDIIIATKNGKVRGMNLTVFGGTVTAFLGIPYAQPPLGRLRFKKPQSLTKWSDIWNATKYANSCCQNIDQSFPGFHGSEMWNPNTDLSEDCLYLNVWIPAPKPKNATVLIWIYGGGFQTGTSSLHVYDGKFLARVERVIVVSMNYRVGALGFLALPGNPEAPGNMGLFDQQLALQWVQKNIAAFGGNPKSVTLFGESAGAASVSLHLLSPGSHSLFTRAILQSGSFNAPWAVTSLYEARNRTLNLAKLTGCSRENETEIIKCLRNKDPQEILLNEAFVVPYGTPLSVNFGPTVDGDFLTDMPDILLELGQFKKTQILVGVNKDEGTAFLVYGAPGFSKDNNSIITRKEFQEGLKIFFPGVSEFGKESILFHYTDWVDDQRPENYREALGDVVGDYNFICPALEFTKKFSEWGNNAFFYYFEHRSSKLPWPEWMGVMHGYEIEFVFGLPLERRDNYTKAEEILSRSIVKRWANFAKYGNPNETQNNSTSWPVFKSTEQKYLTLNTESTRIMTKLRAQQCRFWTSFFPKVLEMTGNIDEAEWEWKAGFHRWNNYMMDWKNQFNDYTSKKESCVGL
pIC50: −log10 of the molar value.
outcome measure: pIC50

Lookup: # query: pIC50 | item CCN(CC)CCOc1ccc2c(c1)C(=O)c1cc(OCCN(CC)CC)ccc1-2 | system: human butyrylcholinesterase (BuChE) (Homo sapiens)
Found: < 7.30

* * *

target under test: UniProt:Q12809
Sequence (Q12809 whole entry): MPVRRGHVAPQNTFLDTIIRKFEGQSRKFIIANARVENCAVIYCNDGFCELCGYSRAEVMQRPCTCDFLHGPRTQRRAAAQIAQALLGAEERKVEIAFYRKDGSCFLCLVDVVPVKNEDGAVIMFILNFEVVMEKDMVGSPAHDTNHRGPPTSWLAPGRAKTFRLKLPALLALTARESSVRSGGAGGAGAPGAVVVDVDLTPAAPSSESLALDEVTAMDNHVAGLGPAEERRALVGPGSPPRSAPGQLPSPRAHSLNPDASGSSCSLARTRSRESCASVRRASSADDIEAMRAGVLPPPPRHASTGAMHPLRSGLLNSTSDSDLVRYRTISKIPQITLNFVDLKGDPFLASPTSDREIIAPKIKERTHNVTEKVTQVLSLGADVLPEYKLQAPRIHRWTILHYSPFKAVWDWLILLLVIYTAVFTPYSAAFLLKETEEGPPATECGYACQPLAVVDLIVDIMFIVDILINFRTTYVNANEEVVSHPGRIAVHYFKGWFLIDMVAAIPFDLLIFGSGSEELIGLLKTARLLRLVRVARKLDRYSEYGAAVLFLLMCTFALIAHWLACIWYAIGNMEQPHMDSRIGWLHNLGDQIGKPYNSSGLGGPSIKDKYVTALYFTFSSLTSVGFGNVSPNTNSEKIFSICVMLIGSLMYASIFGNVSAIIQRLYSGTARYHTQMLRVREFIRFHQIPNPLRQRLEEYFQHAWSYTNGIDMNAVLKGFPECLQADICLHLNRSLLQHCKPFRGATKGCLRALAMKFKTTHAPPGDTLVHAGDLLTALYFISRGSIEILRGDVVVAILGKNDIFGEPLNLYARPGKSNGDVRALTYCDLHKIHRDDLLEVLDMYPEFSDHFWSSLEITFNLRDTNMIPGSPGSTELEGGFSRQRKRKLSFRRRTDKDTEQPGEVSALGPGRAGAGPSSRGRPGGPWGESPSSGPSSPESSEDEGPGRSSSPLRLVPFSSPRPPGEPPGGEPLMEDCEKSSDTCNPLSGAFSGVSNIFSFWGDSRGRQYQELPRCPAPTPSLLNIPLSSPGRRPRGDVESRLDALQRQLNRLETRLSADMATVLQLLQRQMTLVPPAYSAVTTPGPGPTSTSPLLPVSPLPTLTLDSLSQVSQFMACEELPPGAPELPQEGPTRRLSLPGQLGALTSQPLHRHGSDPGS
assay details: SafetyScreen44 binding assay Potassium Channel hERG (human)-[3H] Dofetilide
test conditions: probe [3H] Dofetilide, read-out: % Inhibition of Specific Control Binding
outcome measure: inhibition at 1 µM
Value and unit, in that order.

Lookup: # lookup: inhibition at 1 µM of CCN(CC)CCOc1ccc2c(c1)C(=O)c1cc(OCCN(CC)CC)ccc1-2 [tilorone]
Found: -4%

* * *

target under test: human AChE (Homo sapiens)
Sequence (P22303 32-614): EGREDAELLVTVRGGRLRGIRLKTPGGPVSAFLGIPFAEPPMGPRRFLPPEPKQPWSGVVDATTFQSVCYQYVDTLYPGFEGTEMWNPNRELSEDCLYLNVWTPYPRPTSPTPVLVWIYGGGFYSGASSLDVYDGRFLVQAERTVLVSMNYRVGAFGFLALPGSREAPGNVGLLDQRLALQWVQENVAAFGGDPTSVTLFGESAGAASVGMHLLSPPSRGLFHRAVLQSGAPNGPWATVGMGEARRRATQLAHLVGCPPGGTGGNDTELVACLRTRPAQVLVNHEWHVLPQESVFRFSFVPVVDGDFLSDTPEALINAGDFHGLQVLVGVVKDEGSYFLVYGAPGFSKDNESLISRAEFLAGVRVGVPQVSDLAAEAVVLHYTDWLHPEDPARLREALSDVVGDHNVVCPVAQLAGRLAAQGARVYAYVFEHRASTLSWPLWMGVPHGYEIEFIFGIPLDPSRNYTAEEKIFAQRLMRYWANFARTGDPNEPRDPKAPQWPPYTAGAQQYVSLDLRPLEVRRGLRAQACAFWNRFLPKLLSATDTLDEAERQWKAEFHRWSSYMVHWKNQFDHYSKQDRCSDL
Format: biochemical
test conditions: average of the colorimetric and Eurofins values; read-out: average IC50 for human AChE
outcome measure: IC50 (µM)
Report the value in µM with no unit label.

Lookup: # lookup: IC50 of CCN(CC)CCOc1ccc2c(c1)C(=O)c1cc(OCCN(CC)CC)ccc1-2
Found: 0.0646

* * *

target under test: human AChE (Homo sapiens)
Type: biochemical
test conditions: colorimetric kit, n=2; read-out: IC50 against human AChE (colorimetric assay)
outcome measure: pIC50
API: returns pIC50 as number; meaning -log10 of concentration in mol/L.

Lookup: # lookup: pIC50 of CCN(CC)CCOc1ccc2c(c1)C(=O)c1cc(OCCN(CC)CC)ccc1-2
Found: 7.13

* * *

target under test: human AChE (Homo sapiens)
Assay type: biochemical
test conditions: third-party photometric assay; read-out: IC50 against human AChE (Eurofins Discovery)
outcome measure: IC50

Lookup: # lookup: IC50 of CCN(CC)CCOc1ccc2c(c1)C(=O)c1cc(OCCN(CC)CC)ccc1-2
Found: 56 nM
